- experimental-system: Kv1.3 potassium channel (Homo sapiens)
- Construct: expressed in transfected cells
- Sequence (P22001 whole entry): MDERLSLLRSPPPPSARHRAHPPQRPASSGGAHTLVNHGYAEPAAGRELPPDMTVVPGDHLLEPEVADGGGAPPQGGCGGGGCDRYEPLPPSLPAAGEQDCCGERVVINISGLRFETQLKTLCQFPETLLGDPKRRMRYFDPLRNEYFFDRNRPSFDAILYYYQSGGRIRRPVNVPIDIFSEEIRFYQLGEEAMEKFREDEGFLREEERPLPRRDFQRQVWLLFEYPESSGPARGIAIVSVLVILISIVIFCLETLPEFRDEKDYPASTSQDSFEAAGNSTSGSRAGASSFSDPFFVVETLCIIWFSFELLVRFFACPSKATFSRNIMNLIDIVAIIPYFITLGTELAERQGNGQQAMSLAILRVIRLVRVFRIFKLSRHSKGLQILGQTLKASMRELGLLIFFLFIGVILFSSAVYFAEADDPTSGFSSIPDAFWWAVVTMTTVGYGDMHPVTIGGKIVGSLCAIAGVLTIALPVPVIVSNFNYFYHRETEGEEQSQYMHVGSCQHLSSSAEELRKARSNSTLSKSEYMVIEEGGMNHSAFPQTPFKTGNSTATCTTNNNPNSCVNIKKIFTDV
- assay-info: Kv1.3 potassium channel blocker activity, automated whole-cell patch clamp (Patchliner)
- Type: cell-based
- run-parameters: Table 6; CHO-K1 cells stably expressing Kv1.3; whole cell current, pulses -90 mV to +40 mV; read-out: Kv1.3_IC50
I'd appreciate it if you could supply IC50 values for the items below.

Data request: Give Kv1.3 potassium channel (Homo sapiens) IC50 for Oc1ccc(Cl)c(Cl)c1C(O)c1ccc2[nH]ccc2c1 (stereo not shown) [Compound 52]
Data returned: < 30 µM

Data request: Ok, now NCc1cc(C(O)c2c(O)ccc(Cl)c2Cl)ccn1 (stereo not shown) [Compound 28]
Data returned: < 1 µM

Data request: Queued: Oc1ccc(Cl)c(Cl)c1C(O)c1ccncc1 (single isomer, unassigned) [Compound 37]
Data returned: < 1 µM

Data request: Next compound: Oc1ccc(Cl)c(Cl)c1C(O)c1ccncn1 (stereo not shown) [Compound 55]
Data returned: < 10 µM

Data request: Follow-up entry: CC(=O)NC(c1ccncc1)c1c(O)ccc(Cl)c1Cl (single isomer, unassigned) [Compound 38]
Data returned: < 30 µM

Data request: // next record Cc1cnccc1C(O)c1c(O)ccc(Cl)c1Cl (single isomer, unassigned) [Compound 46]
Data returned: < 1 µM

Data request: Next: NC(=O)c1ccc(C(O)c2c(O)ccc(Cl)c2Cl)cc1 (stereo not shown) [Compound 64]
Data returned: < 1 µM

Data request: Can you handle Oc1ccc(Cl)c(Cl)c1C(O)c1c[nH]c2ccccc12 (stereo not shown) [Compound 59] next?
Data returned: < 30 µM

Data request: Cool, now O=C(NC(c1ccncc1)c1c(O)ccc(Cl)c1Cl)c1cn[nH]c1 (stereo not shown) [Compound 57]
Data returned: < 30 µM

Data request: Try O=C(NC(c1ccncc1)c1c(O)ccc(Cl)c1Cl)C1CNC1 (stereo not shown) [Compound 42] next.
Data returned: < 1 µM

Data request: Try the compound NC(c1ccncc1)c1c(O)ccc2ccccc12 (stereo not shown) [Compound 17]
Data returned: < 10 µM

Data request: Consider next the compound O=C(N[C@@H](c1ccncc1)c1c(O)ccc(Cl)c1Cl)[C@H]1CCCN1 (single isomer, unassigned) [Compound 67] in the same way.
Data returned: < 10 µM

Data request: Then what about the compound N#Cc1ccc(C(N)c2cc(Cl)c(Cl)cc2O)cc1 (stereo not shown) [Compound 16] ?
Data returned: < 10 µM

Data request: Follow-up entry: CN1CC(C(=O)NC(c2ccncc2)c2c(O)ccc(Cl)c2Cl)C1 (single isomer, unassigned) [Compound 72]
Data returned: < 1 µM

Data request: Another compound to look at: Oc1ccc(Cl)c(Cl)c1C(O)c1ccncc1 (stereo not shown) [Compound 29]
Data returned: < 1 µM

Data request: Could you do the same for Oc1ccc2ccccc2c1C(O)c1ccncc1 (stereo not shown) [Compound 32] , please?
Data returned: < 10 µM

Data request: Repeat for the following compound: NC(c1ccccc1)c1cc(Cl)c(Cl)cc1O (stereo not shown) [Compound 5]
Data returned: < 30 µM

Data request: Field entry: NCc1cc(C(O)c2c(O)ccc(Cl)c2Cl)ccn1 (single isomer, unassigned) [Compound 53]
Data returned: < 1 µM

Data request: Same question, NC(c1cn[nH]c1)c1cc(Cl)c(Cl)cc1O (stereo not shown) [Compound 10] this time
Data returned: < 10 µM

Data request: Item: Oc1cc(Cl)c(Cl)cc1C(O)c1ccncc1 (stereo not shown) [Compound 27]
Data returned: < 10 µM

Data request: Record: Nc1cc(C(O)c2c(O)ccc(Cl)c2Cl)ccn1 (single isomer, unassigned) [Compound 44]
Data returned: < 30 µM

Data request: Note, next up: Oc1ccc(Cl)c(Cl)c1C(O)c1cccnc1 (stereo not shown) [Compound 31]
Data returned: < 1 µM

Data request: // repeat for Cc1cnccc1C(O)c1c(O)ccc(Cl)c1Cl (stereo not shown) [Compound 39] and report
Data returned: < 1 µM

Data request: Request: Nc1ccc(C(N)c2c(O)ccc(Cl)c2Cl)cn1 (stereo not shown) [Compound 14]
Data returned: < 10 µM

Data request: Would you mind doing Oc1cc(Cl)c(Cl)cc1Cc1ccncc1 [Compound 1] as well?
Data returned: < 10 µM

Data request: Try NC(=O)c1cnccc1Cc1cc(Cl)c(Cl)cc1O [Compound 4] next.
Data returned: < 10 µM

Data request: Consider next the compound Cc1cnccc1C(NC(=O)C1CNC1)c1c(O)ccc(Cl)c1Cl (stereo not shown) [Compound 9] in the same way.
Data returned: < 1 µM

Data request: What do we get for CC(=O)NC(c1ccncc1)c1c(O)ccc(Cl)c1Cl (single isomer, unassigned) [Compound 41] ?
Data returned: < 1 µM

Data request: Queued: Cc1cc(C(O)c2c(O)ccc(Cl)c2Cl)ccn1 (stereo not shown) [Compound 35]
Data returned: < 10 µM

Data request: // query: Oc1ccc(Cl)c(Cl)c1C(O)c1cccc2[nH]ccc12 (stereo not shown) [Compound 51]
Data returned: < 10 µM

Data request: What would you report for Nc1cc(Cc2cc(Cl)c(Cl)cc2O)ccn1 [Compound 2] ?
Data returned: < 10 µM

Data request: Same for CN1CC(C(=O)NC(c2ccncc2)c2c(O)ccc(Cl)c2Cl)C1 (single isomer, unassigned) [Compound 75]
Data returned: < 10 µM

Data request: What about this compound? Nc1ccc(C(O)c2c(O)ccc(Cl)c2Cl)cn1 (stereo not shown) [Compound 40]
Data returned: < 1 µM

Data request: Thanks! And CC(=O)NC(c1ccncc1)c1c(O)ccc(Cl)c1Cl (stereo not shown) [Compound 20] ?
Data returned: < 1 µM

Data request: And what about the compound Oc1ccc(Cl)c(Cl)c1C(O)c1ccnc(N2CCOCC2)c1 (stereo not shown) [Compound 58] ?
Data returned: < 10 µM

Data request: Follow-up item: NCc1cc(C(O)c2c(O)ccc(Cl)c2Cl)ccn1 (single isomer, unassigned) [Compound 47]
Data returned: < 30 µM

Data request: # iterate: Cn1cc(C(c2ccncc2)c2c(O)ccc(Cl)c2Cl)cn1 (stereo not shown) [Compound 74]
Data returned: < 30 µM

The origin of these recorded values is patent US20230131535A1.
